Test system: G-clamp-N3 (biotin conjugate)
testSummary: pull-down binding Z-score (relative to library population); higher = stronger binding
measurementSetup: RNA library: Library-1 (pre-miRNA loops + repeats)
measuredMetric: pull-down binding Z-score
Respond numerically, and do not add a unit to the figure.

{"sequenceChain": "UAAGUGUCCUAGCACUUA [hsa-mir-374b]", "measuredMetric": "pull-down binding Z-score", "recordedMeasurement": 0.214}
{"sequenceChain": "CCUUCUGCUUACAGGUAUUGGAAGG [hsa-mir-3158-1]", "measuredMetric": "pull-down binding Z-score", "recordedMeasurement": 0.832}

The sequence CCUCUGUCCUCUGUCCUCUACCUAUAGAGG [hsa-mir-641] showed pull-down binding Z-score equal to 0.349

Looking up GCUGCAGAUCUUUGUCUAAGCAGC [hsa-mir-4498] , I found its pull-down binding Z-score recorded as -0.879

Memo: GGAGAAGACUUUUCCUUUCCUCC [hsa-mir-4660] , reported pull-down binding Z-score: -0.415

// field: pull-down binding Z-score; key: GUGAGGCAGGGAGCUGAGCUCAC [hsa-mir-3622a] ; value = -0.0355

pull-down binding Z-score measured on AAUUUUGAUGAGUAUCAUAGGAGAAAAAUU [hsa-mir-363] = 1.49
